// provenance: paper PMC6053248

# measurement_target: T1, GRF9-CELD (Arabidopsis thaliana, UniProt Q8S9M3 2-431)
# T1 sequence: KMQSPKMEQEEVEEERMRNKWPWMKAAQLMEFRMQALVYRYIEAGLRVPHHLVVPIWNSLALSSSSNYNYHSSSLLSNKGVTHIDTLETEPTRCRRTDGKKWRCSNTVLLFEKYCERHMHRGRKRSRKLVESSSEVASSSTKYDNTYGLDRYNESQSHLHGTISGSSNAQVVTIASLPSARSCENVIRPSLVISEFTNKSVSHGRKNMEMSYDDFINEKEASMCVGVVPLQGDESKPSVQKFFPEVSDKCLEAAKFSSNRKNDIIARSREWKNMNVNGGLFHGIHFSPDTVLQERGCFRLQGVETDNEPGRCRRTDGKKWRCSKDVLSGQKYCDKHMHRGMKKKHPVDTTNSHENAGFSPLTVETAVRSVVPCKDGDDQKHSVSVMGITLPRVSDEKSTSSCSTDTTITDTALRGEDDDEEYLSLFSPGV
# protocol_details: CELD plate binding assay (streptavidin plate); 10 uM ZnCl2; CELD plate assay: 25 mM HEPES/KOH pH 7.0, 50 mM KCl, 0.5 mM DTT, 10 uM ZnCl2, 0.15 ug/ul herring sperm DNA, 0.3 mg/ml BSA, 10% glycerol, 0.025% NP-40, 2 pmol probe; binding temperature not stated; EMSA buffer not given (cited protocols)
# recorded_conditions: protein: recombinant; tags: C-terminal CELD (cellulase D) fusion, 6xHis; label: biotin
reported_metric: binding signal

Use these answered entries as a reference point.
binder	binding signal
GRFE1m1 (dsDNA) DNA 1: CCGGTACTGGACTGACACACCAGAACTTCA DNA 2: TGAAGTTCTGGTGTGTCAGTCCAGTACCGG	0.79 relative to GRFE1
GRFE1m3 (dsDNA) DNA 1: CCGGTACTGGTCTGACAAACCAGAACTTCA DNA 2: TGAAGTTCTGGTTTGTCAGACCAGTACCGG	0.89 relative to GRFE1
GRFE1m6 (dsDNA) DNA 1: CCGGTACTGGTCGGACATACCAGAACTTCA DNA 2: TGAAGTTCTGGTATGTCCGACCAGTACCGG	0 relative to GRFE1
GRFE1m4 (dsDNA) DNA 1: CCGGTACTGGTGTGACATACCAGAACTTCA DNA 2: TGAAGTTCTGGTATGTCACACCAGTACCGG	0 relative to GRFE1
GRFE1m2 (dsDNA) DNA 1: CCGGTACTGGCCTGACACACCAGAACTTCA DNA 2: TGAAGTTCTGGTGTGTCAGGCCAGTACCGG	0.43 relative to GRFE1

Here are 2 binders. What values of binding signal were reported for them?
1. GRFE1m5 (dsDNA) DNA 1: CCGGTACTGGTCTGACTTACCAGAACTTCA DNA 2: TGAAGTTCTGGTAAGTCAGACCAGTACCGG
2. GRFE1m7 (dsDNA) DNA 1: CCGGTACTGGTCTGAGATACCAGAACTTCA DNA 2: TGAAGTTCTGGTATCTCAGACCAGTACCGG

Out:
0 relative to GRFE1
0 relative to GRFE1
